Provenance of the data: patent US11634425B2

protocolNotes: in vitro
Assay type: in vitro ADME
details: hepatocytes; dog; 3 μM compound; read-out: Liver Hepatocyte Stability t1/2
Assignment: determine reported half-life at 3 μM for the given molecules.
# value in h; strip the unit string

Data request: Which half-life at 3 μM is reported for this molecule? `Cc1nc2ccc(Cl)nn2c1C(=O)N[C@H]1N=C(c2ccccc2)c2cccc(F)c2NC1=O`
Data returned: 2.2

Data request: Which half-life at 3 μM is reported for this molecule? `O=C(N[C@H]1N=C(c2ccccc2)c2cccc(F)c2NC1=O)c1c(-c2cncc(Cl)c2)nn2cccnc12`
Data returned: 4

Data request: Which half-life at 3 μM is reported for this molecule? `COc1ccc2nc(-c3ccncc3F)c(C(=O)N[C@H]3N=C(c4ccccc4)c4cccc(F)c4NC3=O)n2n1`
Data returned: 4.92

Data request: Which half-life at 3 μM is reported for this molecule? `CCc1ccc(-c2nn3cccnc3c2C(=O)N[C@H]2N=C(c3ccccc3)c3cccc(F)c3NC2=O)cn1`
Data returned: 2.43
